# assay_summary: Cytotoxicity against mouse RAW264.7 cells incubated for 24 hrs by MTT assay
# Type: toxicity, cell-based
quantity_name: IC50 at 24 h

Ask: // lookup IC50 at 24 h for NS(=O)(=O)c1ccc(-c2nnc(SCC(=O)O)n2-c2ccccc2Cl)cc1
Reply: > 100 µM

Ask: # iterate: NS(=O)(=O)c1ccc(-c2nnc(SCC(=O)O)n2-c2ccccc2[N+](=O)[O-])cc1
Reply: > 100 µM

Ask: Same again, this time with NS(=O)(=O)c1ccc(-c2nnc(SCC(=O)O)n2-c2cccc(F)c2)cc1
Reply: > 100 µM

Ask: Moving on to Cc1ccc(-n2c(SCC(=O)O)nnc2-c2ccc(S(N)(=O)=O)cc2)cc1
Reply: 74.6 µM

Ask: Query NS(=O)(=O)c1ccc(-c2nnc(SCC(=O)O)n2-c2ccc(Cl)cc2)cc1 next
Reply: > 100 µM

Ask: Similarly, NS(=O)(=O)c1ccc(-c2nnc(SCC(=O)O)n2-c2ccccc2C(F)(F)F)cc1 ?
Reply: > 100 µM

Ask: Then NS(=O)(=O)c1ccc(-c2nnc(SCC(=O)O)n2-c2ccc(F)cc2)cc1 ?
Reply: > 100 µM

Ask: Again, but for Cc1ccccc1-n1c(SCC(=O)O)nnc1-c1ccc(S(N)(=O)=O)cc1
Reply: > 100 µM

Ask: Same lookup for Cc1cccc(-n2c(SCC(=O)O)nnc2-c2ccc(S(N)(=O)=O)cc2)c1 , please.
Reply: 76.6 µM

Ask: Also COc1ccc(-n2c(SCC(=O)O)nnc2-c2ccc(S(N)(=O)=O)cc2)cc1 ?
Reply: > 100 µM

Values were extracted from ChEMBL document CHEMBL6103571.
